Assay text: Oral bioavailability in BALB/C mouse at 5 mg/kg by LC-MS/MS method
Assay type: ADME, organism-based
Condition label: in vivo
Outcome measure: bioavailability (%)

a. CN1C[C@H](C(=O)Nc2ccc(Cl)cc2)[C@@H](c2ccc(/C=C/C(=O)Nc3ccccc3N)cn2)C1 (racemic)
b. CN1C[C@H](C(=O)Nc2ccc(F)cc2)[C@@H](c2ccc(/C=C/C(=O)Nc3ccccc3N)cc2)C1 (racemic)
Query :: Looking at a and b , which one comes out lower in bioavailability terms? Lab note: record the label of whichever item you select.
Result :: a

====

Assay text: Clearance in mouse liver microsomes at 1 uM incubated for 10 mins by LC-MS/MS method
Type: ADME, Microsome
Outcome measure: CLhep predicted at 1 µM (mL/min/kg)

Examples with their reported CLhep predicted at 1 µM follow.
# Molecule, Unit tag, CLhep predicted at 1 µM
data = [
    ("CN1C[C@H](C(=O)Nc2ccc(Cl)cc2)[C@@H](c2ccc(/C=C/C(=O)Nc3ccccc3N)cc2F)C1 (racemic)", "mL/min/kg", 36),
    ("CN(C)[C@H]1CCN(C(C(=O)Nc2ccc(C(F)(F)F)cc2)c2ccc(/C=C/C(=O)Nc3ccccc3N)cc2)C1 (some centres not stated)", "mL/min/kg", 34),
]

1. CCN1C[C@H](C(=O)Nc2ccc(Cl)cc2)[C@@H](c2ccc(/C=C/C(=O)Nc3ccccc3N)cc2)C1 (racemic)
2. CN1C[C@H](C(=O)NC2CCCC2)[C@@H](c2ccc(/C=C/C(=O)Nc3ccccc3N)cc2)C1 (racemic)
Query :: Between 1 and 2 , which one has the lower reported CLhep predicted at 1 µM value? The response must carry the label of the picked entry.
Result :: 1
(1: 35 mL/min/kg, 2: 61 mL/min/kg)

====

Assay text: AUC in BALB/C mouse at 5 mg/kg, po or 1 mg/kg, iv by LC-MS/MS method
Format: ADME, organism-based
Condition label: plasma
Outcome measure: AUC (ng·h/mL)

A. CN1C[C@H](C(=O)Nc2ccc(Cl)cc2)[C@@H](c2ccc(/C=C/C(=O)Nc3ccccc3N)cn2)C1 (racemic)
B. CN1C[C@H](C(=O)Nc2ccc(F)cc2)[C@@H](c2ccc(/C=C/C(=O)Nc3ccccc3N)cc2)C1 (racemic)
Query :: Pick the one with the larger AUC: A vs B When you have decided, please share the label of that item.
Result :: B
(B: 624 ng·h/mL, A: 204 ng·h/mL)

====

Assay text: Clearance in BALB/C mouse at 10 mg/kg, po or 2 mg/kg, iv by LC-MS/MS method
Type: ADME, organism-based
Condition label: in vivo
Outcome measure: clearance (mL/min/kg)

Below are worked cases with known answers.
# Compound, Unit tag, clearance
data = [
    ("Nc1ccccc1NC(=O)/C=C/c1ccc(C(NCCO)C(=O)Nc2ccc(C(F)(F)F)cc2)cc1 (racemic)", "mL/min/kg", 49),
    ("CN(C)[C@H]1CCN(C(C(=O)Nc2ccc(C(F)(F)F)cc2)c2ccc(/C=C/C(=O)Nc3ccccc3N)cc2)C1 (stereo partly specified)", "mL/min/kg", 67),
    ("CN1C[C@H](C(=O)Nc2ccc(F)c(F)c2)[C@@H](c2ccc(/C=C/C(=O)Nc3ccccc3N)cc2)C1 (racemic)", "mL/min/kg", 53),
    ("Nc1ccccc1NC(=O)/C=C/c1ccc([C@H]2CN(C3CCOCC3)C[C@@H]2C(=O)Nc2ccc(Cl)cc2)cc1 (racemic)", "mL/min/kg", 39),
    ("Nc1ccccc1NC(=O)/C=C/c1ccc(C(C(=O)Nc2ccc(Br)cc2)N2CC[C@H](O)C2)cc1 (stereo partly specified)", "mL/min/kg", 8),
    ("Nc1ccccc1NC(=O)/C=C/c1ccc([C@H]2CN(CCO)C[C@@H]2C(=O)Nc2ccc(Cl)cc2)cc1 (racemic)", "mL/min/kg", 20),
]

1. CN1C[C@@H](C(=O)Nc2ccc(Cl)cc2)[C@H](c2ccc(/C=C/C(=O)Nc3ccccc3N)cc2)C1
2. CC(C)(O)CN1C[C@H](C(=O)Nc2ccc(Cl)cc2)[C@@H](c2ccc(/C=C/C(=O)Nc3ccccc3N)cc2)C1 (racemic)
3. CC(C)N1C[C@H](C(=O)Nc2ccc(Cl)cc2)[C@@H](c2ccc(/C=C/C(=O)Nc3ccccc3N)cc2)C1 (racemic)
4. CN1C[C@H](C(=O)Nc2ccc(Cl)cc2)[C@@H](c2ccc(/C=C/C(=O)Nc3ccccc3N)cc2F)C1 (racemic)
Query :: Please list these compounds in decreasing order of clearance. Ranked list of labels, please, in the requested order.
Result :: 3, 1, 2, 4

====

Assay text: Oral bioavailability in BALB/C mouse at 10 mg/kg by LC-MS/MS method
Type: ADME, organism-based
Condition label: BALB/C, in vivo
Outcome measure: bioavailability (%)

For orientation, consider the following solved cases.
# Compound, bioavailability / %
data = [
    ("Nc1ccccc1NC(=O)/C=C/c1ccc(C(C(=O)Nc2ccc(Br)cc2)N2CC[C@H](O)C2)cc1 (some centres not stated)", 13),
    ("CC(C)N1C[C@H](C(=O)Nc2ccc(Cl)cc2)[C@@H](c2ccc(/C=C/C(=O)Nc3ccccc3N)cc2)C1 (racemic)", 100),
    ("CN(C)[C@H]1CCN(C(C(=O)Nc2ccc(C(F)(F)F)cc2)c2ccc(/C=C/C(=O)Nc3ccccc3N)cc2)C1 (some centres not stated)", 21),
    ("CN1C[C@H](C(=O)Nc2ccc(Cl)cc2)[C@@H](c2ccc(/C=C/C(=O)Nc3ccccc3N)cc2F)C1 (racemic)", 49),
    ("Nc1ccccc1NC(=O)/C=C/c1ccc(C(NCCO)C(=O)Nc2ccc(C(F)(F)F)cc2)cc1 (racemic)", 71),
]

A. CC(C)(CO)N1C[C@H](C(=O)Nc2ccc(Cl)cc2)[C@@H](c2ccc(/C=C/C(=O)Nc3ccccc3N)cc2)C1 (racemic)
B. Nc1ccccc1NC(=O)/C=C/c1ccc([C@H]2CN(C3CCOCC3)C[C@@H]2C(=O)Nc2ccc(Cl)cc2)cc1 (racemic)
Query :: Lab log: flag the item ( A or B ) with the smaller bioavailability figure. Which one? Tell me its label.
Result :: A

====

Assay text: Tmax in BALB/C mouse at 10 mg/kg, po or 2 mg/kg, iv by LC-MS/MS method
Format: ADME, organism-based
Condition label: BALB/C, in vivo
Outcome measure: Tmax (h)

Solved entries:
# Compound, Outcome measure, Reported
measured = [
    ("CN1C[C@H](C(=O)Nc2ccc(F)c(F)c2)[C@@H](c2ccc(/C=C/C(=O)Nc3ccccc3N)cc2)C1 (racemic)", "Tmax", 1),
    ("CN1C[C@@H](C(=O)Nc2ccc(Cl)cc2)[C@H](c2ccc(/C=C/C(=O)Nc3ccccc3N)cc2)C1", "Tmax", 1),
]

I. Nc1ccccc1NC(=O)/C=C/c1ccc([C@H]2CN(CCO)C[C@@H]2C(=O)Nc2ccc(Cl)cc2)cc1 (racemic)
II. CC(C)(CO)N1C[C@H](C(=O)Nc2ccc(Cl)cc2)[C@@H](c2ccc(/C=C/C(=O)Nc3ccccc3N)cc2)C1 (racemic)
Query :: Pick one: I or II . Which has the bigger Tmax number? Label of pick, please.
Result :: II
(II: 2 h, I: 0.25 h)

====

Assay text: Clearance in mouse liver microsomes at 1 uM incubated for 10 mins by LC-MS/MS method
Assay type: ADME, Microsome
Outcome measure: CLhep predicted at 1 µM (mL/min/kg)

# Molecule, Reported
rows = [
    ("Nc1ccccc1NC(=O)/C=C/c1ccc([C@H]2CN(c3ncccn3)C[C@@H]2C(=O)Nc2ccc(Cl)cc2)cc1 (racemic)", 44),
]

a. CN1C[C@H](C(=O)Nc2cccc(Cl)c2)[C@@H](c2ccc(/C=C/C(=O)Nc3ccccc3N)cc2)C1 (racemic)
b. CN1C[C@H](C(=O)Nc2ccccn2)[C@@H](c2ccc(/C=C/C(=O)Nc3ccccc3N)cc2)C1 (racemic)
Query :: Identify the item whose CLhep predicted at 1 µM is the smaller number: a or b Answer by quoting the chosen item's label.
Result :: b

====

Assay text: Clearance in mouse liver microsomes at 1 uM incubated for 10 mins by LC-MS/MS method
Format: ADME, Microsome
Outcome measure: CLhep predicted at 1 µM (mL/min/kg)

# Compound, Unit tag, CLhep predicted at 1 µM
rows = [
    ("CN1C[C@H](C(=O)Nc2ccc(F)cc2)[C@@H](c2ccc(/C=C/C(=O)Nc3ccccc3N)cc2)C1 (racemic)", "mL/min/kg", 34),
]

I. CN1C[C@H](C(=O)Nc2cccnc2)[C@@H](c2ccc(/C=C/C(=O)Nc3ccccc3N)cc2)C1 (racemic)
II. COCCN1C[C@H](C(=O)Nc2ccc(Cl)cc2)[C@@H](c2ccc(/C=C/C(=O)Nc3ccccc3N)cc2)C1 (racemic)
Query :: Of I and II , which one carries the higher reported CLhep predicted at 1 µM? Your choice should be expressed through its label.
Result :: II
(II: 72 mL/min/kg, I: 41 mL/min/kg)
